These measurements were taken from PubChem BioAssay (NCI).

tested on: SNB-19 CNS; test: NCI tumour cell line growth inhibition, 48 h
TGI values for the compounds below.

The examples below pair each entry with its known result.
compound=O=C(CCCSc1nc(-c2ccccc2)cc(-c2ccccc2)n1)NO result="13.8 µM"
compound=Cc1ccccc1C(=N)c1ccccc1Cc1cccc2ccccc12 result="> 100 µM"
compound=O=C(N/N=C/c1ccc(Cl)cc1)c1c(Cl)c(Cl)c(Cl)c(Cl)c1-c1nc2ccccc2[nH]1 result="> 100 µM"
compound=O=C(/C=C/c1ccc(O)cc1)c1ccc(O)cc1 result="> 78.2 µM"
compound=O=C(Nc1ccc(Oc2ccc(Nc3nc4ccccc4s3)cc2)cc1)Nc1ccc(Cl)c(C(F)(F)F)c1 result="3.62 µM"
compound=N#CC(C#N)=C/C=C(\Sc1nc2ccccc2s1)c1ccc(Cl)cc1 result="> 41.2 µM"
compound="Cc1ccc(-c2cc(-c3ccco3)c(C#N)c(=S)n2C2OC(CO)C(O)C(O)C2O)cc1 (stereo unspecified)" result="> 100 µM"
compound=Cc1cc(Nc2ccc(S(=O)(=O)O)c3cc(S(=O)(=O)O)cc(S(=O)(=O)O)c23)c2ccccc2n1 result="> 100 µM"

Prompt line: For SNB-19 CNS, give TGI of the listed compound: `COCCOc1ccc(-c2nc3ccc(-c4nc5ccc(N6CCN(C)CC6)cc5[nH]4)cc3[nH]2)cc1`
Response line: 10.5 µM

Prompt line: For SNB-19 CNS, give TGI of the listed compound: `Cc1ccnc(NS(=O)(=O)c2ccc(N=[N+]=[N-])cc2)n1`
Response line: > 100 µM

Prompt line: For SNB-19 CNS, give TGI of the listed compound: `CN(C)CCn1c2c3ccccc3ccc2c2oc(=O)c3ccccc3c21`
Response line: 29.4 µM

----------
TGI values for the compounds below.
system: BT-549 breast; assay: NCI tumour cell line growth inhibition, 48 h
The reply should be a number in µM, with the unit left off.

The examples below pair each entry with its known result.
compound=CCOC(=O)c1c(CN2CCCC2)n(-c2ccccc2)c2cc(Br)c(O)cc12 result_number=55.8
compound=Nc1c(-c2ccc(Cl)c(Cl)c2)c2ccc([N+](=O)[O-])cc2c(=O)n1-c1nc2ccccc2s1 result_number=21.7
compound=O=S(=O)(c1ccccc1)c1cccc2c1NCCC2 result_number=83
compound="CCN1C(=O)N(c2ccccc2)C2NC(=S)N(/N=C/C=C/c3ccccc3OC)C21 (stereo not given)" result_number=3.41

Prompt line: Dear colleague, please send me the reported TGI for `O=C(Nc1ccc(Oc2ccc(Nc3nc4ccccc4s3)cc2)cc1)Nc1ccc(Cl)c(C(F)(F)F)c1` when you can.
Response line: 3.05

Prompt line: Dear colleague, please send me the reported TGI for `CCCCCCCCCCn1cc[n+](C)c1` when you can.
Response line: 8.2

Prompt line: Dear colleague, please send me the reported TGI for `C=CC1(CC/C(=C\[N+](=O)[O-])c2ccc(OC)c(OC)c2)OCC(C)(C)CO1` when you can.
Response line: 31.1

----------
tested on: SR leukemia; test: NCI tumour cell line growth inhibition, 48 h
TGI values for the compounds below.
The reply should be a number in µM, with the unit left off.

compound="COc1cc(S(=O)(=O)Nc2nc(-c3ccc(N4C(=O)C(CC(=O)O)SC4c4cccs4)cc3)cs2)ccc1Cl (stereo not given)" target_desc="SR leukemia" unit_abbreviation=µM result_number=79.1

Prompt line: Dear colleague, please send me the reported TGI for `Cc1ccc(/C=C/C(=O)CCN(C)C)cc1` when you can.
Response line: 62.7
